Tested on: U-2 OS
experimental.protocol: cell painting activity score (Mahalanobis distance from DMSO wells); higher = stronger morphological phenotype
condition.summary: 5 µM; 24 h
I would appreciate it if you labelled entries Criterion met when cell painting activity score is 6 or higher, otherwise Criterion not met.

compound | label.value
CNC(=O)Nc1ccc2c(c1)CC[C@@]21OC(=O)N(CC(=O)N(Cc2ccc(F)cc2)[C@@H](C)C(F)(F)F)C1=O | Criterion met
O=C(CBr)N1CC([N+](=O)[O-])([N+](=O)[O-])C1 | Criterion met
c1ccc(-c2noc(NC3CCCC3)n2)cc1 | Criterion not met
CC(=O)OC1C(c2ccc(=O)oc2)C2(C)CCC3C(CCC4CC(O)CCC43C)C23OC13 (stereo not given) | Criterion met
Cc1cc(NC(=O)c2cccc(NC(=O)/C=C/CN(C)C)c2)ccc1Nc1nccc(-c2cccnc2)n1 | Criterion met
CN(C)/N=N/c1nc[nH]c1C(N)=O | Criterion not met
O=S1(=O)C=Cc2ccccc21 | Criterion met
Nc1nc(Cl)nc2c1ncn2[C@H]1C[C@H](O)[C@@H](CO)O1 | Criterion met
CCN(CC)CCNC(=O)c1c(C)[nH]c(/C=C2\C(=O)Nc3ccc(F)cc32)c1C | Criterion met
CNC(=O)c1cc(Oc2ccc(NC(=O)Nc3ccc(Cl)c(C(F)(F)F)c3)cc2)ccn1 | Criterion met
O=NN(CCCl)C(=O)NCCCl | Criterion not met
COc1ccc2cc1Oc1ccc(cc1)C[C@H]1c3cc(c(OC)cc3CCN1C)Oc1c(OC)c(OC)cc3c1[C@H](C2)N(C)CC3 | Criterion met
Cc1nc(Nc2ncc(C(=O)Nc3c(C)cccc3Cl)s2)cc(N2CCN(CCO)CC2)n1 | Criterion met
CC[C@H]1CN2CCc3cc(OC)c(OC)cc3[C@@H]2C[C@@H]1C[C@H]1NCCc2cc(OC)c(OC)cc21.Cl.Cl.O | Criterion met
O=C(O)C1(C(=O)O)CCC1.[NH2-].[NH2-].[Pt+2] | Criterion not met
CO[C@@H]1[C@H](N(C)C(=O)c2ccccc2)C[C@H]2O[C@]1(C)n1c3ccccc3c3c4c(c5c6ccccc6n2c5c31)C(=O)NC4 | Criterion met
CC(C)(C)C1=CC(=O)C=CC1=O | Criterion met
S=P(N1CC1)(N1CC1)N1CC1 | Criterion not met
COC1=C2C[C@@H](C)C[C@H](OC)[C@H](O)[C@@H](C)/C=C(\C)[C@H](OC(N)=O)[C@@H](OC)/C=C\C=C(/C)C(=O)NC(=CC1=O)C2=O | Criterion met
O=C(O[C@@H]1O[C@@H]2COC(=O)c3cc(O)c(O)c(O)c3-c3c(cc(O)c(O)c3O)C(=O)O[C@H]([C@H]1O)[C@@H]2O)c1cc(O)c(O)c(O)c1 | Criterion not met
C/C1=C/C(=O)O[C@@H]2C[C@@H](CC[C@H](C)/C=C\CC1)O[C@@](O)([C@@H]1CSC(=O)N1)C2 | Criterion met
S=C(Nc1ccccc1)Nc1nc(-c2ccccc2)[n+](-c2ccccc2)s1 | Criterion not met
CN(C)C/C=C/C(=O)Nc1cc2c(Nc3ccc(F)c(Cl)c3)ncnc2cc1O[C@H]1CCOC1 | Criterion met
Cc1cc2c(C(C)C)c(O)c(O)c(C=O)c2c(O)c1-c1c(C)cc2c(C(C)C)c(O)c(O)c(C=O)c2c1O | Criterion not met
Cc1csc(=NC2CCCCC2)n1/N=C/c1ccc(O)c(O)c1O | Criterion not met
Oc1cccc(-c2nc(N3CCOCC3)c3oc4ncccc4c3n2)c1 | Criterion met
Cc1ccc(C(=O)N(CCCN)[C@@H](c2nc3cc(Cl)ccc3c(=O)n2Cc2ccccc2)C(C)C)cc1 | Criterion met
O=C([O-])C(=O)[O-].[NH-][C@@H]1CCCC[C@H]1[NH-].[Pt+4] | Criterion met
O=C(O)CCCc1ccc(N(CCCl)CCCl)cc1 | Criterion met
C[n+]1ccc(-c2cc[n+](CCCCCCCCCC[P+](c3ccccc3)(c3ccccc3)c3ccccc3)cc2)cc1.[I-].[I-].[I-] | Criterion not met
ClC1=CC=C(C2=CSC(N/N=C3CCCC/3)=N2)C=C1 | Criterion not met
CN1C(=O)[C@]23CC4=CC=C[C@H](O)[C@H]4N2C(=O)[C@@]1(CO)SS3 | Criterion met
